# target or test system: T1, human IL-17A (human, UniProt Q16552 24-155)
# T1 construct: Recombinant human IL-17A (Peprotech Cat. No. 200-17), disulfide-linked homodimer from E. coli; Biotinylated or RPE-labelled in some assays; also called hIL-17A; IL-17A-RPE (labelled)
# protocol details: competitive ELISA: IL-17RA coated, biotinylated IL-17A preincubated with scFv
attribute measured: IC50 (ng/mL)

A2 (humanized anti-IL-17A scFv, STR graft of 27-07-G02) (scFv, VL-linker-VH; also called 27-07-G02-sc02) scFv: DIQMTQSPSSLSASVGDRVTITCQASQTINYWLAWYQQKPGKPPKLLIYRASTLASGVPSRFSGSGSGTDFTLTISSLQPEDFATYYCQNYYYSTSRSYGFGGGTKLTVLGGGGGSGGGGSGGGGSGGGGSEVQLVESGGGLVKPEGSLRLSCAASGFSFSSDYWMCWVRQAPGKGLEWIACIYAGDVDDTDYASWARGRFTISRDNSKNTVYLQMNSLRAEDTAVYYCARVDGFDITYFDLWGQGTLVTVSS; 1.6
PRO592 (humanized anti-IL-17A scFv, STR graft of 27-31-C04) (scFv, VL-linker-VH; also called 27-31-C04-sc02; 27_31_C04_sc02) scFv: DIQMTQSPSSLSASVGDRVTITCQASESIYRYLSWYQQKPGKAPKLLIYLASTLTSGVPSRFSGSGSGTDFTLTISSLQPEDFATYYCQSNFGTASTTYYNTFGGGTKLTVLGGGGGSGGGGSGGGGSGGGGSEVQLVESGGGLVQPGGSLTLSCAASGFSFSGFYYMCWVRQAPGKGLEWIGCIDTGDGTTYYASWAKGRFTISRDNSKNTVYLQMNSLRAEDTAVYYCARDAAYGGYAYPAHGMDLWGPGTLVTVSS; 0.9
A1 (humanized anti-IL-17A scFv, CDR graft of 27-07-G02) (scFv, VL-linker-VH; also called 27-07-G02-sc01; 27_07_G02_sc01) scFv: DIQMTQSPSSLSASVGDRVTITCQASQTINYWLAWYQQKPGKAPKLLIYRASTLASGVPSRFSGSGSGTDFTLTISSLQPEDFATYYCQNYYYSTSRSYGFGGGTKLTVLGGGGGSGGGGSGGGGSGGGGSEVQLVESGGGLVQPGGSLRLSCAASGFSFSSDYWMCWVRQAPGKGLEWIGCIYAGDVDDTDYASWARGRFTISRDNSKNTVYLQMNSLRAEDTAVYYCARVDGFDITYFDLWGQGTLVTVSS; 2
